For each entry below, report its half-life at 0.5 h, 1 µM value.
# experimental_protocol: in vitro
# assay_context: human, liver microsomes
# do not omit the unit; it follows the number

Bench note: what half-life at 0.5 h, 1 µM did C=C[C@]1(C)C[C@@H](OC(=O)Cn2cc(-c3ccc(Cn4cnc5c(N6CCN(C)CC6)ncnc54)cc3)nn2)[C@]2(C)[C@H](C)CC[C@]3(CCC(=O)[C@H]32)[C@@H](C)[C@@H]1O show?
1.4 min

# iterate: C=C[C@]1(C)C[C@@H](OC(=O)CS[C@@H]2CC[C@@H](N)C[C@H]2O)[C@]2(C)[C@H](C)CC[C@]3(CCC(=O)[C@H]32)[C@@H](C)[C@@H]1O
4.3 min

Moving on to the next molecule: C=C[C@]1(C)C[C@@H](OC(=O)Cn2cc(-c3ccc(Cn4cnc5c(N)ncnc54)cc3)nn2)[C@]2(C)[C@H](C)CC[C@]3(CCC(=O)[C@H]32)[C@@H](C)[C@@H]1O
1.2 min

Same thing, different molecule: C=C[C@]1(C)C[C@@H](OC(=O)Cn2cc(-c3ccc(Cn4cnc5c(N)ncnc54)c(O)c3)nn2)[C@]2(C)[C@H](C)CC[C@]3(CCC(=O)[C@H]32)[C@@H](C)[C@@H]1O
1.2 min

// repeat for C=C[C@]1(C)C[C@@H](OC(=O)Cn2cc(-c3ccc(Cn4cnc5c(N)ncnc54)nc3)nn2)[C@]2(C)[C@H](C)CC[C@]3(CCC(=O)[C@H]32)[C@@H](C)[C@@H]1O and report
1.9 min

Next up: C=C[C@]1(C)C[C@@H](OC(=O)Cn2cc(-c3ccc(Cn4cnc5c(N6CCNCC6)ncnc54)nc3)nn2)[C@]2(C)[C@H](C)CC[C@]3(CCC(=O)[C@H]32)[C@@H](C)[C@@H]1O
3.7 min

* * *

# experimental_protocol: in vitro
# assay_context: pig, microsomes
measured_attribute: CLint scaled at 0.5 h, 1 µM (mL/min/kg)
// note: answer is a bare numeric in mL/min/kg

Query: CLint scaled at 0.5 h, 1 µM; subject: O=C(O)Cc1ccccc1Nc1c(Cl)cccc1Cl
145

* * *

# experimental_protocol: in vitro
# assay_context: pig, liver microsomes
For each of the molecules below, state its half-life at 0.5 h, 1 µM.
Unit min implied. Number only.

Please give the measured half-life at 0.5 h, 1 µM for this molecule: C=C[C@]1(C)C[C@@H](OC(=O)CS[C@@H]2CC[C@@H](N)C[C@H]2O)[C@]2(C)[C@H](C)CC[C@]3(CCC(=O)[C@H]32)[C@@H](C)[C@@H]1O
15.3

And for C=C[C@]1(C)C[C@@H](OC(=O)Cn2cc(-c3ccc(Cn4cnc5c(N6CCNCC6)ncnc54)nc3)nn2)[C@]2(C)[C@H](C)CC[C@]3(CCC(=O)[C@H]32)[C@@H](C)[C@@H]1O ?
1.3

// next record C=C[C@]1(C)C[C@@H](OC(=O)Cn2cc(-c3ccc(Cn4cnc5c(N6CCN(C)CC6)ncnc54)cc3)nn2)[C@]2(C)[C@H](C)CC[C@]3(CCC(=O)[C@H]32)[C@@H](C)[C@@H]1O
0.5

* * *

# experimental_protocol: Elimination rate constant in pig plasma at 3 mg/kg, iv measured upto 240 mins by LC-MS/MS analysis
# Format: ADME, organism-based, Sus scrofa
measured_attribute: k el at 4 h (s⁻¹)
Write the number in s⁻¹ without appending the unit.

Entry under review: C=C[C@]1(C)C[C@@H](OC(=O)Cn2cc(-c3ccc(Cn4cnc5c(N6CCNCC6)ncnc54)nc3)nn2)[C@]2(C)[C@H](C)CC[C@]3(CCC(=O)[C@H]32)[C@@H](C)[C@@H]1O . Reported k el at 4 h?
0.000155

* * *

# experimental_protocol: in vitro
# assay_context: pig, microsomes
measured_attribute: half-life at 0.5 h, 1 µM

Need half-life at 0.5 h, 1 µM, item O=C(O)Cc1ccccc1Nc1c(Cl)cccc1Cl
37.9 min

* * *

# system: ATP-dependent translocase ABCB1 (Homo sapiens)
# Sequence (P08183 whole entry): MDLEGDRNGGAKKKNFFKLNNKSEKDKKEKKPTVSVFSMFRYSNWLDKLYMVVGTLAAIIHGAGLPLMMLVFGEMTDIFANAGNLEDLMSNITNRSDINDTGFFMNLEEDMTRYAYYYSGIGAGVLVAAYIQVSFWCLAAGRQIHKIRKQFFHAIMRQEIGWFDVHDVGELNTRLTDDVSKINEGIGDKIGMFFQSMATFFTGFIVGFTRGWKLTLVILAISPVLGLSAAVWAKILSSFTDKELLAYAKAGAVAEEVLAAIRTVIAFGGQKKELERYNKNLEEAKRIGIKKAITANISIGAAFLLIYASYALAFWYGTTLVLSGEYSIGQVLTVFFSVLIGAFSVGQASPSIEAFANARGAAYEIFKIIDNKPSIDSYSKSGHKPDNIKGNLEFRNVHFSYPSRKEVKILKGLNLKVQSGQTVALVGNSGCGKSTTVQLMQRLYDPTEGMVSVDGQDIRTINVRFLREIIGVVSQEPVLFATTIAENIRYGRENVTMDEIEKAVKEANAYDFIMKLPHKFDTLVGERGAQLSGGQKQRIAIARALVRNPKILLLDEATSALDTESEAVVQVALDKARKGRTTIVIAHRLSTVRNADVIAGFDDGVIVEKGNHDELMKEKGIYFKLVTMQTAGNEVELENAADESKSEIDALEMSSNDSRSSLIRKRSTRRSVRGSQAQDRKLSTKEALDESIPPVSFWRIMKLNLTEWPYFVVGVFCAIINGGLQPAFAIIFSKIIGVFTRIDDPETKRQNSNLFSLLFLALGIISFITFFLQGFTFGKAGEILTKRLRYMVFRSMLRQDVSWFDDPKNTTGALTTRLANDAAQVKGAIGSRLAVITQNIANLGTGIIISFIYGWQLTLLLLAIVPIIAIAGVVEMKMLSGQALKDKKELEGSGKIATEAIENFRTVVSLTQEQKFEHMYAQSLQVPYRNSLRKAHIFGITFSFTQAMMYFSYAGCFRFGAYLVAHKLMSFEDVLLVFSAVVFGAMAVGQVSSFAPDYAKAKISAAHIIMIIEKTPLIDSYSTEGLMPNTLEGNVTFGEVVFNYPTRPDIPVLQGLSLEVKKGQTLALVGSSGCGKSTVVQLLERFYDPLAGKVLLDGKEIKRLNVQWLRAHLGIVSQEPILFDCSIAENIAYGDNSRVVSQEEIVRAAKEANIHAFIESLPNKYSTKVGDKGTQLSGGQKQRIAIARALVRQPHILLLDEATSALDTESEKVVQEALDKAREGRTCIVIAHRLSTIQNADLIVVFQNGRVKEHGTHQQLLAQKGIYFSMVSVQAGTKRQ
# experimental_protocol: Inhibition of P-gp in human Caco-2 cells using digoxin as substrate
measured_attribute: pIC50
Scale note: pIC50 = -log10(concentration in M).

Item C=C[C@]1(C)C[C@@H](OC(=O)CS[C@@H]2CC[C@@H](N)C[C@H]2O)[C@]2(C)[C@H](C)CC[C@]3(CCC(=O)[C@H]32)[C@@H](C)[C@@H]1O [LEFAMULIN] has what recorded pIC50?
4.47

* * *

# experimental_protocol: Clearance in NMRI female mouse at 30 mg/kg, iv by HPLC analysis
# Assay type: ADME, organism-based
# assay_context: in vivo
measured_attribute: clearance (mL/min/kg)
Provide only the numeric value, understood in mL/min/kg.

// returns reported clearance for input C=C[C@]1(C)C[C@@H](OC(=O)Cn2cc(-c3ccc(Cn4cnc5c(N6CCNCC6)ncnc54)nc3)nn2)[C@]2(C)[C@H](C)CC[C@]3(CCC(=O)[C@H]32)[C@@H](C)[C@@H]1O
69.8

* * *

# experimental_protocol: Tmax in pig plasma at 3 mg/kg, iv measured upto 240 mins by LC-MS/MS analysis
# Format: ADME, organism-based, Sus scrofa
measured_attribute: Tmax (h)
Respond with the bare value in h.

Tmax lookup needed for C=C[C@]1(C)C[C@@H](OC(=O)Cn2cc(-c3ccc(Cn4cnc5c(N6CCNCC6)ncnc54)nc3)nn2)[C@]2(C)[C@H](C)CC[C@]3(CCC(=O)[C@H]32)[C@@H](C)[C@@H]1O , thanks.
0

* * *

# experimental_protocol: Bioavailability in NMRI female mouse at 60 mg/kg, sc by HPLC analysis
# Format: ADME, organism-based
# assay_context: in vivo
measured_attribute: bioavailability (%)
Number only, in %; omit the unit.

Form field: reported bioavailability of C=C[C@]1(C)C[C@@H](OC(=O)Cn2cc(-c3ccc(Cn4cnc5c(N6CCNCC6)ncnc54)nc3)nn2)[C@]2(C)[C@H](C)CC[C@]3(CCC(=O)[C@H]32)[C@@H](C)[C@@H]1O
33

* * *

# experimental_protocol: Solubility of the compound in Dulbecco's PBS at 20 degree C measured after 24 hrs
What solubility at 24 h was measured for each of the following?
Quick reminder: number only, in µM, skip the unit.

Entry under review: C=C[C@]1(C)C[C@@H](OC(=O)Cn2cc(-c3ccc(Cn4cnc5c(N)ncnc54)nc3)nn2)[C@]2(C)[C@H](C)CC[C@]3(CCC(=O)[C@H]32)[C@@H](C)[C@@H]1O . Reported solubility at 24 h?
6.7

Check C=C[C@]1(C)C[C@@H](OC(=O)Cn2cc(-c3ccc([C@@H](C)n4cnc5c(N6CCNCC6)ncnc54)cc3)nn2)[C@]2(C)[C@H](C)CC[C@]3(CCC(=O)[C@H]32)[C@@H](C)[C@@H]1O too.
10

What do we get for C=C[C@]1(C)C[C@@H](OC(=O)Cn2cc(-c3ccc(Cn4cnc5c(N)ncnc54)c(O)c3)nn2)[C@]2(C)[C@H](C)CC[C@]3(CCC(=O)[C@H]32)[C@@H](C)[C@@H]1O ?
2.5

Now consider C=C[C@]1(C)C[C@@H](OC(=O)Cn2cc(-c3ccc(Cn4cnc5c(N)ncnc54)c(OC)c3)nn2)[C@]2(C)[C@H](C)CC[C@]3(CCC(=O)[C@H]32)[C@@H](C)[C@@H]1O and answer again.
2.2

Follow-up entry: C=C[C@]1(C)C[C@@H](OC(=O)Cn2cc(-c3ccc(Cn4cnc5c(N)nc(N)nc54)cc3)nn2)[C@]2(C)[C@H](C)CC[C@]3(CCC(=O)[C@H]32)[C@@H](C)[C@@H]1O
1.9

// next record C=C[C@]1(C)C[C@@H](OC(=O)Cn2cc(-c3ccc(Cn4cnc5c(N6CCNCC6)ncnc54)cc3)nn2)[C@]2(C)[C@H](C)CC[C@]3(CCC(=O)[C@H]32)[C@@H](C)[C@@H]1O
31

Try this compound too: C=C[C@]1(C)C[C@@H](OC(=O)CS[C@@H]2CC[C@@H](N)C[C@H]2O)[C@]2(C)[C@H](C)CC[C@]3(CCC(=O)[C@H]32)[C@@H](C)[C@@H]1O [LEFAMULIN]
1920

Would you mind doing C=C[C@]1(C)C[C@@H](OC(=O)Cn2cc(-c3ccc(Cn4cnc5c(N6CCNCC6)ncnc54)nc3)nn2)[C@]2(C)[C@H](C)CC[C@]3(CCC(=O)[C@H]32)[C@@H](C)[C@@H]1O as well?
114

Proceed to C=C[C@]1(C)C[C@@H](OC(=O)Cn2cc(-c3ccc([C@@H](C)n4cnc5c(N)ncnc54)cc3)nn2)[C@]2(C)[C@H](C)CC[C@]3(CCC(=O)[C@H]32)[C@@H](C)[C@@H]1O
2.6

* * *

# experimental_protocol: Tmax in NMRI female mouse at 60 mg/kg, sc by HPLC analysis
# Type: ADME, organism-based
# assay_context: in vivo
measured_attribute: Tmax (min)
// return numeric value only (unit: min, not printed)

For C=C[C@]1(C)C[C@@H](OC(=O)Cn2cc(-c3ccc(Cn4cnc5c(N6CCNCC6)ncnc54)nc3)nn2)[C@]2(C)[C@H](C)CC[C@]3(CCC(=O)[C@H]32)[C@@H](C)[C@@H]1O , what is its reported Tmax?
15
